Measured on: Human CD3eg linker (human)
Sequence (chain, as listed by the source limits assumed): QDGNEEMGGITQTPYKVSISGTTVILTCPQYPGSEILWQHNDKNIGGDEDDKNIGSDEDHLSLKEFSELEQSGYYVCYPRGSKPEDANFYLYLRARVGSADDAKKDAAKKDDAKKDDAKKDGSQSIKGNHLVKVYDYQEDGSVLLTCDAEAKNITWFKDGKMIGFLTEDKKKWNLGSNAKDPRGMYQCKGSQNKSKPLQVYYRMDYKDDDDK
Method summary: SPR; fold vs parent H183/L072
Observed property: fold change of affinity (fold)
I only need the number, in fold, no unit after it.

binder="H183/L072 VL F96M (antibody, name in Kabat numbering, V domains shown) VH: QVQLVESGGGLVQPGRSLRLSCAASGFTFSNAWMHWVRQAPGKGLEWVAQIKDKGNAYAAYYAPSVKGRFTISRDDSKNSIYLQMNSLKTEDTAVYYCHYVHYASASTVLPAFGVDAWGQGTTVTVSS VL: DIVMTQSPLSLPVTPGEPASISCQASQELVHMNRNTYLHWYQQKPGQAPRLLIYKVSNRFPGVPDRFSGSGSGTDFTLKISRVEAEDVGVYYCAQGTSVPMTFGQGTKLEIK" quantitative_result=0
binder="H183/L072 VL H34I (antibody, name in Kabat numbering, V domains shown) VH: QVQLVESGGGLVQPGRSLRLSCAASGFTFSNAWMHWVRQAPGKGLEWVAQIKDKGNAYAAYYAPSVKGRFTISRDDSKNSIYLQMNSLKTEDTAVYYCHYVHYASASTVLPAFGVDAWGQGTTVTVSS VL: DIVMTQSPLSLPVTPGEPASISCQASQELVHMNRNTYLIWYQQKPGQAPRLLIYKVSNRFPGVPDRFSGSGSGTDFTLKISRVEAEDVGVYYCAQGTSVPFTFGQGTKLEIK" quantitative_result=0

Now look at this one.
For the binder H183/L072 VL T31W (antibody, name in Kabat numbering, V domains shown) VH: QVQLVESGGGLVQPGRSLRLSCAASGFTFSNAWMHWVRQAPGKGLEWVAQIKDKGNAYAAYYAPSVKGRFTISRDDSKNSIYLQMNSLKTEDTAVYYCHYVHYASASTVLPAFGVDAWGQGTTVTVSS VL: DIVMTQSPLSLPVTPGEPASISCQASQELVHMNRNWYLHWYQQKPGQAPRLLIYKVSNRFPGVPDRFSGSGSGTDFTLKISRVEAEDVGVYYCAQGTSVPFTFGQGTKLEIK , report fold change of affinity.
0
